Reference for the values: patent US20150038591A1

Molecular target: aggregated Tau-441 (Homo sapiens, UniProt P10636)
Construct: purchased rPeptide
Sequence (P10636 1-441 isoform P10636-8): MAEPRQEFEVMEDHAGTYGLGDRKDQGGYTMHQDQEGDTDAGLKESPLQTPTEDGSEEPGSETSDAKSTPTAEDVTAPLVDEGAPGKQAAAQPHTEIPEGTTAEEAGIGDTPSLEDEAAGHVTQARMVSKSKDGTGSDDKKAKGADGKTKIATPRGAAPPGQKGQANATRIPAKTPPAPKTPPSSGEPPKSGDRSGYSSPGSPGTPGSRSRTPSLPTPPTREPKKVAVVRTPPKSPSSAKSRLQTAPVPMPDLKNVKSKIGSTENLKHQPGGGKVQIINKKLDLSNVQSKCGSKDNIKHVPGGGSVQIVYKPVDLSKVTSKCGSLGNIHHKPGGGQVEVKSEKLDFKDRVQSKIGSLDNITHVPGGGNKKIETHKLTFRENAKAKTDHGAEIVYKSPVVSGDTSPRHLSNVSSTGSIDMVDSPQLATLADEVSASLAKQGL
Assay: Thioflavin T fluorometry, dissolution/disruption/inhibition of preformed Tau aggregates
Format: biochemical
Settings: Tau:test compound wt/wt ratio 1:0.1; 3 days at 37° C.
measurement kind: % dissolution/disruption/inhibition Tau (result ± S.D.) (%)
The answer is to be given in %; state only the numeric part.

*Q* Write down the reported % dissolution/disruption/inhibition Tau (result ± S.D.) of Oc1ccc(CCc2ccc(O)c(O)c2)cc1O [Compound 4, 1,2-bis(3,4-dihydroxyphenyl)ethane] , test system: aggregated Tau-441 (Homo sapiens, UniProt P10636).
*A* 92.8

*Q* Do the same for O=C(Nc1ccc(O)c(O)c1)Nc1ccc(O)c(O)c1 [Compound 76, 1,3-Bis(3,4-dihydroxyphenyl)urea] please
*A* 91.2

*Q* Do the same for Oc1ccc(Cc2ccc(O)c(O)c2)cc1O [Compound 3, 3,4,3′,4′-Tetrahydroxydiphenylmethane] please
*A* 89.2

*Q* Do the same for O=C(Nc1ccc(O)c(O)c1)C(=O)Nc1ccc(O)c(O)c1 [Compound 63, oxalic acid bis(3,4-dihydroxyanilide)] please
*A* 34.7

----------
Please go through the items and note down their % dissolution/disruption/inhibition Tau (result ± S.D.).
Target: aggregated Tau-441 (Homo sapiens, UniProt P10636)
Construct: purchased rPeptide
Assay: Thioflavin T fluorometry, dissolution/disruption/inhibition of preformed Tau aggregates
Type: biochemical
Settings: Tau:test compound wt/wt ratio 1:1; 3 days at 37° C.
The answer is to be given in %; state only the numeric part.

*Q* For the compound shown here, Oc1ccc(CCc2ccc(O)c(O)c2)cc1O [Compound 4, 1,2-bis(3,4-dihydroxyphenyl)ethane] , give the reported % dissolution/disruption/inhibition Tau (result ± S.D.).
*A* 93.5

*Q* Do the same for Oc1ccc(Cc2ccc(O)c(O)c2)cc1O [Compound 3, 3,4,3′,4′-Tetrahydroxydiphenylmethane] please
*A* 91.2

*Q* Do the same for O=C(Nc1ccc(O)c(O)c1)Nc1ccc(O)c(O)c1 [Compound 76, 1,3-Bis(3,4-dihydroxyphenyl)urea] please
*A* 94.1

*Q* Do the same for O=C(Nc1ccc(O)c(O)c1)C(=O)Nc1ccc(O)c(O)c1 [Compound 63, oxalic acid bis(3,4-dihydroxyanilide)] please
*A* 77.8

----------
Please go through the items and note down their IC50.
Molecular target: Tau aggregates (Homo sapiens)
Sequence (P10636 1-441 isoform P10636-8): as above
Test: Thioflavin S fluorometry, dissolution/disruption/inhibition of Tau aggregates
The answer is to be given in µM; state only the numeric part.

*Q* For the molecule shown here, Oc1ccc(CCc2ccc(O)c(O)c2)cc1O [Compound 4, 1,2-bis(3,4-dihydroxyphenyl)ethane] , give the reported IC50.
*A* 10.8

*Q* Do the same for O=C(Nc1ccc(O)c(O)c1)Nc1ccc(O)c(O)c1 [Compound 76, 1,3-Bis(3,4-dihydroxyphenyl)urea] please
*A* 3.95

*Q* Do the same for Oc1ccc(Cc2ccc(O)c(O)c2)cc1O [Compound 3, 3,4,3′,4′-Tetrahydroxydiphenylmethane] please
*A* 32.4

*Q* Do the same for O=C(NCCc1ccc(O)c(O)c1)Nc1ccc(O)c(O)c1 please
*A* 5.26

----------
Molecular target: aggregated Tau-441 (Homo sapiens)
Construct: purchased rPeptide
Test: Thioflavin T fluorometry, dissolution/disruption/inhibition of preformed Tau aggregates
Assay type: biochemical
Conditions: Tau:test compound wt/wt ratio 1:0.001; 3 days at 37° C.
measurement kind: % dissolution/disruption/inhibition Tau (result ± S.D.)
For clarity, give the value followed by its unit.

*Q* For the compound shown here, Oc1ccc(Cc2ccc(O)c(O)c2)cc1O [Compound 3, 3,4,3′,4′-Tetrahydroxydiphenylmethane] , give the reported % dissolution/disruption/inhibition Tau (result ± S.D.).
*A* 17.0 ± 2.49%

*Q* Do the same for Oc1ccc(CCc2ccc(O)c(O)c2)cc1O [Compound 4, 1,2-bis(3,4-dihydroxyphenyl)ethane] please
*A* 19.3 ± 0.00%

*Q* Do the same for O=C(Nc1ccc(O)c(O)c1)C(=O)Nc1ccc(O)c(O)c1 [Compound 63, oxalic acid bis(3,4-dihydroxyanilide)] please
*A* 11.8 ± 8.06%

*Q* Do the same for O=C(Nc1ccc(O)c(O)c1)Nc1ccc(O)c(O)c1 [Compound 76, 1,3-Bis(3,4-dihydroxyphenyl)urea] please
*A* 17.4 ± 4.88%
